Experiment: LSER descriptors by PSP approach from experimental inverse gas chromatography (IGC) data
Format: physicochemical
Details: LSER acidity descriptor, initial or tentative estimates
Measure name: A (PSP)

// solved cases for A (PSP) follow
# Compound, A (PSP)
rows = [
    ("COc1ccccc1OCCNCC(O)COc1cccc2[nH]c3ccccc3c12 (centres unmarked) [Carvedilol, carvedilol]", 0.50),
    ("CCOC(=O)N1CCC(=C2c3ccc(Cl)cc3CCc3cccnc32)CC1 [Loratadine, loratadine]", 0.00),
]

P: CCC(C)(C)C(=O)O[C@H]1C[C@@H](C)C=C2C=C[C@H](C)[C@H](CC[C@@H]3C[C@@H](O)CC(=O)O3)[C@H]21 [Simvastatin, simvastatin]
Q: COc1cc(C(=O)NS(=O)(=O)c2ccccc2C)ccc1Cc1cn(C)c2ccc(NC(=O)OC3CCCC3)cc12 [Zafirlukast, zafirlukast]
R: CC(=O)N1CCN(c2ccc(OCC3COC(Cn4ccnc4)(c4ccc(Cl)cc4Cl)O3)cc2)CC1 (centres unmarked) [Ketoconazole, ketoconazole]
Task: Please put the entries in order of rising A (PSP). # respond with the labels, arranged in the requested order
Output: R, P, Q
(R: 0.00, P: 0.20, Q: 0.71)

* * *

Assay: Cohesive energy (solubility-parameter) components by the PSP/LSER method
Measure name: σp (polarity PSP) (MPa^0.5)

# Molecule, σp (polarity PSP), MPa^0.5
data = [
    ("CC(=O)N1CCN(c2ccc(OCC3COC(Cn4ccnc4)(c4ccc(Cl)cc4Cl)O3)cc2)CC1 (stereo not shown) [Ketoconazole, ketoconazole]", 8.45),
    ("COc1ccccc1OCCNCC(O)COc1cccc2[nH]c3ccccc3c12 (stereo not shown) [Carvedilol, carvedilol]", 9.91),
    ("CCOC(=O)N1CCC(=C2c3ccc(Cl)cc3CCc3cccnc32)CC1 [Loratadine, loratadine]", 9.87),
    ("COc1cc(C(=O)NS(=O)(=O)c2ccccc2C)ccc1Cc1cn(C)c2ccc(NC(=O)OC3CCCC3)cc12 [Zafirlukast, zafirlukast]", 10.33),
]

* * *

Assay: Surface energy components by IGC with the PSP/LSER method
Format: physicochemical
Details: PSP/LSER method, Equation (27); unit assumed
Measure name: γa (acidic surface energy component) (mJ/m^2)

Please review the following examples before continuing.
# Compound, Unit spec, γa (acidic surface energy component)
measured = [
    ("COc1cc(C(=O)NS(=O)(=O)c2ccccc2C)ccc1Cc1cn(C)c2ccc(NC(=O)OC3CCCC3)cc12", "mJ/m^2", 1.64),
    ("CC(=O)N1CCN(c2ccc(OCC3COC(Cn4ccnc4)(c4ccc(Cl)cc4Cl)O3)cc2)CC1 (stereo not shown)", "mJ/m^2", 0),
]

a: CCC(C)(C)C(=O)O[C@H]1C[C@@H](C)C=C2C=C[C@H](C)[C@H](CC[C@@H]3C[C@@H](O)CC(=O)O3)[C@H]21
b: COc1ccccc1OCCNCC(O)COc1cccc2[nH]c3ccccc3c12 (stereo not shown)
Task: Hello, I am sorting some records. Could you say if a or b has the smaller γa (acidic surface energy component) value? Your answer should be the label of the entry you select.
Output: a
